- MEASURED_ON: T1, gH expressed from MVA in BHK-21 cells (human cytomegalovirus, UniProt P12824 24-743)
- T1 construct: whole, on cells
- TEST_DETAILS: intracellular FC, MVA-infected BHK-21

| BINDER | binding result |
| --- | --- |
| 13B5 (antibody, V domains shown, also called NAb 13B5; 1365) VH: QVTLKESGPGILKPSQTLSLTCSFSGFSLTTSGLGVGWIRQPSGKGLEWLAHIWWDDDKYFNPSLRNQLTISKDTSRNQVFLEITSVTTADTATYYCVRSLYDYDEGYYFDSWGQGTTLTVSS VL: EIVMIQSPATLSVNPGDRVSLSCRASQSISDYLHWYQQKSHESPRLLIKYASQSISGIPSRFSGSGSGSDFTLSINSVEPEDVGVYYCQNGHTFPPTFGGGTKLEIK | no binding |
| 21F6 (antibody, V domains shown, also called NAb 21F6) VH: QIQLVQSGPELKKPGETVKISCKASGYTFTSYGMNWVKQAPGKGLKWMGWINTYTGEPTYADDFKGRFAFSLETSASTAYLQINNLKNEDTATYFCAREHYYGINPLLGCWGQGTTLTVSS VL: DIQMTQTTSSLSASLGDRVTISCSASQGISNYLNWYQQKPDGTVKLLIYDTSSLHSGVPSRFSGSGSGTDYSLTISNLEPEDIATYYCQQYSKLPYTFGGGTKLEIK | no binding |
